The values you see were collected from patent US20260242735A1.

Reported Mean % WT Binding values follow for various binders
- system: human CD33 V29A (human, UniProt P20138 18-364)
- Sequence (P20138 18-364 V29A limits assumed): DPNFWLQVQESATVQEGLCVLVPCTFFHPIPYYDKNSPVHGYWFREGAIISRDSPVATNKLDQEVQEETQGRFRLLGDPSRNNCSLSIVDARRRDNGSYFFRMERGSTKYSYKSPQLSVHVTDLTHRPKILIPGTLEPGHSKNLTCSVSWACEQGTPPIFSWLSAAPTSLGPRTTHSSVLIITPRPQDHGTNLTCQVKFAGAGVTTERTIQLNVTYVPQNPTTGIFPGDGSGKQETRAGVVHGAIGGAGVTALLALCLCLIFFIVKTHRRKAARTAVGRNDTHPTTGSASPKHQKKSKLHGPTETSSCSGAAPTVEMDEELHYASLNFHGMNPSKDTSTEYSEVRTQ
- method: alanine scan, flow cytometry;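 note: HEK293-T cells transiently expressing single-residue alanine mutants of CD33 (alanine swapped to serine), antibody binding read by fluorescence in duplicate, background-subtracted, expressed relative to wild-type CD33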
Please reply with the bare figure in % WT and do not write the unit itself.

binder	unit of measure	Mean % WT Binding
Refmab #2 (antibody, V domains shown, Full-length format is human IgG1 Fc silent (PG-LALA); The alanine scan used IgG or Fab) VH: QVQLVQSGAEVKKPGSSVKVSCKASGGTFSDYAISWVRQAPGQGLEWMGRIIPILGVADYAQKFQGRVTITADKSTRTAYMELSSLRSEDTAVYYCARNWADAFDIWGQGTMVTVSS VL: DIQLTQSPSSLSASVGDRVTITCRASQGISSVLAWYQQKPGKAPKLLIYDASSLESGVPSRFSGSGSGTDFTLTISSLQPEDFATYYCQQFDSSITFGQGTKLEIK	% WT	100
Refmab #3 (antibody, V domains shown, Full-length format is human IgG1 Fc silent (PG-LALA); The alanine scan used IgG or Fab) VH: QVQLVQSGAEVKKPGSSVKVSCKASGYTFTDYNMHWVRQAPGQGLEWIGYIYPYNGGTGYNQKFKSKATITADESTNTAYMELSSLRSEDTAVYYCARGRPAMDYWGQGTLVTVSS VL: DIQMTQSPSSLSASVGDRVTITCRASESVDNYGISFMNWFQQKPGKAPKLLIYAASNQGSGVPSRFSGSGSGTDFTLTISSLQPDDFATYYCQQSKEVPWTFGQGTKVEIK	% WT	115
Refmab #4 (antibody, V domains shown, Full-length format is human IgG1 Fc silent (PG-LALA); The alanine scan used IgG or Fab) VH: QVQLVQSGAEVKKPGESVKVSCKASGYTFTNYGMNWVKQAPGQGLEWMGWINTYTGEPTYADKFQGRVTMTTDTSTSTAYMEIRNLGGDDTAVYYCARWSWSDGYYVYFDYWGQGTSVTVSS VL: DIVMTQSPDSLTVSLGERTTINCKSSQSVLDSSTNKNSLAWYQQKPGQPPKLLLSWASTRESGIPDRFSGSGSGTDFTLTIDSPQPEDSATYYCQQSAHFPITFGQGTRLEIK	% WT	84.4

Could you now consider this next binder?
**Q:** Which Mean % WT Binding value is on record for Refmab #1 (antibody, V domains shown, Full-length format is human IgG1 (Absolute Antibody Ab00283-10.0); The alanine scan used IgG or Fab; also called hP67.6) VH: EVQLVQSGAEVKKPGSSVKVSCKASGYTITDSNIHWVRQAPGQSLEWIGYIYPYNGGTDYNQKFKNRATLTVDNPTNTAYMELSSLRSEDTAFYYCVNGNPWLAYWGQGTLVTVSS VL: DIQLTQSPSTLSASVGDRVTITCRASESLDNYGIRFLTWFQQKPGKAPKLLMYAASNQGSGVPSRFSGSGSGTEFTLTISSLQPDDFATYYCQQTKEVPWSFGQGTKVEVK ?
**A:** 102
